System: SK-MEL-2 melanoma
Assay: NCI-60 one-dose screen, 48 h (100 = growth as untreated, 0 = no growth, -100 = all killed)
Settings: 10 µM unless noted
About 83,000 compounds went through this panel and 20% of them were active in at least one assay; those are over-represented in the sample as a whole.
MEASURED_QUANTITY: growth (%)
Give just the numeric value; % need not be written.

Ask | Jot down growth (SK-MEL-2 melanoma) of CN(C)CCCOc1ccc2c(c1)CN(C(=O)c1cc(C(=O)N3Cc4cccc(F)c4C3)ccc1O)C2 .
Reply | 117

Ask | Jot down growth (SK-MEL-2 melanoma) of NS(=O)(=O)c1ccc(Nc2nc(SCC(=O)c3ccc(Cl)cc3)nc3c2CCCC3)cc1 .
Reply | 67

Ask | Jot down growth (SK-MEL-2 melanoma) of CCOc1ccc(NC2=C(Cl)C(=O)c3nc(C)ccc3C2=O)cc1 .
Reply | -49.8

Ask | Jot down growth (SK-MEL-2 melanoma) of NS(=O)(=O)c1ccc(-n2cc(CN3CCNCC3)nn2)cc1 .
Reply | 110

Ask | Jot down growth (SK-MEL-2 melanoma) of Cc1nn(-c2ccccc2)c2ncnc(N/N=C/c3ccccc3O)c12 .
Reply | 35.4

Ask | Jot down growth (SK-MEL-2 melanoma) of COc1cccc2c1CN(C(=O)c1ccc(O)c(C(=O)N3Cc4ccc(OCCC[P+](c5ccccc5)(c5ccccc5)c5ccccc5)cc4C3)c1)C2 .
Reply | 61.5

Ask | Jot down growth (SK-MEL-2 melanoma) of COc1cccc(O)c1/C=C(/C)c1ccc2c(OC)cccc2[o+]1 .
Reply | 107

Ask | Jot down growth (SK-MEL-2 melanoma) of C#CCOC(=O)[C@@H]1CCCN1CC#C .
Reply | 98.2

Ask | Jot down growth (SK-MEL-2 melanoma) of COc1ccc(OC)c(-c2nc(SCC(=O)c3ccc(Br)cc3)nc(Nc3ccc(S(N)(=O)=O)cc3)c2C#N)c1 .
Reply | 30.4

Ask | Jot down growth (SK-MEL-2 melanoma) of N/C(=N\C(N)=N\c1nc2ccccc2s1)c1ccc(C(F)(F)F)cc1 .
Reply | 108

---

Tested on: OVCAR-5 ovarian
Assay: NCI-60 one-dose screen, 48 h
Conditions: 10 µM unless noted
This is part of a sample that, as a whole, favours compounds with a hit. Of some 83,000 tested, about 20% had one in any assay. The source made the active and inactive calls. Rule for the calls: active = growth percent below 10; inactive = the rest.
Pick from active, inactive when you respond.

Ask | Please indicate how the test categorized Nc1ncc(-c2ccc3ncnc(Nc4cccc(Cl)c4F)c3c2)cn1 .
Reply | inactive

Ask | Please indicate how the test categorized CCNC(=O)N1CCc2cc(OC)c(OCCc3ccc(OC)nc3)cc2C1c1ccc(C)cc1C (stereo not given) .
Reply | inactive

Ask | Please indicate how the test categorized N/C(=N\C(N)=N\c1nc2ccccc2s1)c1cccc(F)c1 .
Reply | inactive

Ask | Please indicate how the test categorized COc1cc(/C=C2\C(=O)Nc3cc(Cl)ccc32)ccc1OCc1ccc(F)cc1 .
Reply | inactive

Ask | Please indicate how the test categorized CC[C@]12C=CCN3CC[C@@]4(c5cc(NC(=O)COc6cc(O)c7c(=O)cc(-c8ccccc8)oc7c6)c(OC)cc5N(C)[C@H]4[C@@](O)(C(=O)OC)[C@@H]1OC(C)=O)[C@@H]32 .
Reply | active

Ask | Please indicate how the test categorized CCCCCCCn1cc2c(N[C@H](C)c3ccccc3)ncnc2n1 .
Reply | inactive

Ask | Please indicate how the test categorized N/C(=N\C(N)=N\c1nc2ccccc2s1)c1ccc(C(F)(F)F)cc1 .
Reply | inactive

Ask | Please indicate how the test categorized c1ccc(C(c2nc3ncncc3[nH]2)N2CSc3nc4ncncc4n3C2)cc1 (stereo not given) .
Reply | inactive

Ask | Please indicate how the test categorized CNC(=O)c1cc(N2CCc3cc(NC(=O)Nc4ccc(Cl)c(C(F)(F)F)c4)ccc32)ccn1 .
Reply | inactive

Ask | Please indicate how the test categorized CCC1=Cc2cc(OC)ccc2OC12C=Cc1cc(OC)ccc1O2 (stereo not given) .
Reply | inactive

Ask | Please indicate how the test categorized COc1ccc(N2C(=O)c3cc(Cl)ccc3NC2SCc2ccccc2)cc1 (stereo not given) .
Reply | inactive

Ask | Please indicate how the test categorized O=C(NNc1nc2cc(F)ccc2n2c(CN3CC4CNCC4C3)ccc12)c1cnccn1 (stereo not given) .
Reply | inactive

Ask | Please indicate how the test categorized CS(=O)(=O)Nc1cc(-c2ccc3ncc(C#N)c(Nc4cccc(Cl)c4F)c3c2)cnc1Cl .
Reply | inactive

Ask | Please indicate how the test categorized CCNC(=O)N1CCc2cc(OC)c(OCCc3ccc(OC)c(N)c3)cc2C1c1cc(C)c(C)cc1C (stereo not given) .
Reply | inactive

Ask | Please indicate how the test categorized Cc1ccc(-c2cc3nc(C(Cl)Cl)nc(-c4ccco4)n3n2)cc1 .
Reply | active

Ask | Please indicate how the test categorized CN(C)CCCOc1ccc2c(c1)CN(C(=O)c1cc(C(=O)N3Cc4cccc(F)c4C3)ccc1O)C2 .
Reply | inactive

Ask | Please indicate how the test categorized Cc1nn(-c2ccccc2)c2ncnc(N/N=C/c3ccccc3)c12 .
Reply | inactive

Ask | Please indicate how the test categorized NC(N)=Nc1ccc(Oc2ccc(Nc3ccc(Cl)c(C(F)(F)F)c3)cc2)cc1 .
Reply | inactive

Ask | Please indicate how the test categorized CC(=O)C1=C(C)NC(NN)=NC1c1cccc(Cl)c1 (stereo not given) .
Reply | inactive

Ask | Please indicate how the test categorized Cc1cccc2c3c(sc12)C(c1ccc(Cl)cc1)c1c(nc(CC(=O)Nc2ccccc2)[nH]c1=O)O3 (stereo not given) .
Reply | inactive
